# study conditions: 308.15 K; 101 kPa; Liquid
Record form. Attribute: mass density. Fill in for each entry.
Answers are plain numbers, in kg/m3.

compound	mass density, kg/m3
COCCOCCO [2-(2-methoxyethoxy)ethanol]	1005.99
COCCO [2-methoxyethan-1-ol]	950.81
COCCOCCOCCO [2-[2-(2-methoxyethoxy)ethoxy]ethanol]	1036.11

Turning now to a further record.
According to the records, this compound CCCCCCCC[n+]1ccn(C)c1.F[B-](F)(F)F [1-methyl-3-octylimidazolium tetrafluoroborate] displays mass density of 1094.13

* * *

# test: refractive index (Na D-line) (dimensionless)
# study conditions: 298.15 K; 101.33 kPa; Liquid
quantity name: refractive index
Numbers only.

molecule	refractive index
COCCO [2-methoxyethan-1-ol]	1.4004
CCCCCCCC[n+]1ccn(C)c1.F[B-](F)(F)F [1-methyl-3-octylimidazolium tetrafluoroborate]	1.4319

List the reported refractive index of each molecule below.
1. COCCOCCO [2-(2-methoxyethoxy)ethanol]
2. COCCOCCOCCO [2-[2-(2-methoxyethoxy)ethoxy]ethanol]

1. 1.4242
2. 1.4362
